Recorded GI50 for the following molecules
# System: NCI-H1373 (human lung adenocarcinoma) cells
# Assay Explanation: Cell proliferation assay (CellTiter-Glo), NCI-H1373
# Format: cell-based
# Test Settings: Homo sapiens, NCI-H1373, 144 h; 6 days, CellTiter-Glo; read-out: NCI-H1373 GI50

compound_string=O=C(c1cc(Cc2n[nH]c(=O)c3ccc(OC4CCC4)cc23)ccc1F)N1CCN(c2ccc(C(F)(F)F)nc2)CC1 reported_metric=GI50 reported_value="0.1 to 1 µM"
compound_string=N#Cc1cnc(N2CCN(C(=O)c3cc(Cc4n[nH]c(=O)c5ccc(OC6CCC6)cc45)ccc3F)CC2)cc1C(F)(F)F reported_metric=GI50 reported_value="< 0.1 µM"
compound_string=N#Cc1ccc(N2CCN(C(=O)c3cc(Cc4n[nH]c(=O)c5ccc(OC6CCC6)cc45)ccc3F)CC2)nc1C(F)(F)F reported_metric=GI50 reported_value="0.1 to 1 µM"
compound_string=O=C(c1cc(Cc2n[nH]c(=O)c3ccc(OC4CCC4)cc23)ccc1F)N1CCn2c(nnc2C2CC2)C1 reported_metric=GI50 reported_value="> 5 µM"

Would you mind telling me what GI50 value was observed for `COc1ccc2c(=O)[nH]nc(Cc3ccc(S(C)(=O)=O)c(C(=O)N4CCN(c5ccc(C#N)cn5)CC4)c3)c2c1` ?
> 5 µM

Item: `N#Cc1ccc(N2CCN(C(=O)c3cncc(Cc4n[nH]c(=O)c5ccc(OC6CCC6)cc45)c3)CC2)nc1`
< 0.1 µM

Item: `N#Cc1ccc(N2CCN(C(=O)c3cc(Cc4n[nH]c(=O)c5ccc(OC6CC(F)(F)C6)cc45)ccc3F)CC2)nc1`
< 0.1 µM

====

# Tested on: NCI-H1373 (human lung adenocarcinoma) cells
# Assay Explanation: Cell proliferation assay (CellTiter-Glo), NCI-H1373
# Type: cell-based
# Test Settings: Homo sapiens, NCI-H1373, 144 h; 6 days, CellTiter-Glo; read-out: NCI-H1373 GI50
Recorded GI50 for the following compounds

Worked set:
compound_string=COc1ccnc(N2CCN(C(=O)c3cc(Cc4n[nH]c(=O)c5ccc(OC6CCC6)cc45)ccc3F)CC2)c1 target_system="NCI-H1373 (human lung adenocarcinoma) cells" reported_value="100 to 1000 nM"
compound_string=N#Cc1ccc(N2CCN(C(=O)c3cc(Cc4n[nH]c(=O)c5ccc(OC(F)(F)F)cc45)ccc3F)CC2)nc1 target_system="NCI-H1373 (human lung adenocarcinoma) cells" reported_value="100 to 1000 nM"

Form field: GI50 recorded for `O=C(c1cc(Cc2n[nH]c(=O)c3ccc(OC4CCC4)cc23)ccc1F)N1CCN(c2cc(C(F)(F)F)ccn2)CC1` with NCI-H1373 (human lung adenocarcinoma) cells (enter value)
100 to 1000 nM

Item: `CC#Cc1cc(C(F)(F)F)c2c(=O)[nH]nc(Cc3ccc(F)c(C(=O)N4CCN(c5ccc(C#N)cn5)CC4)c3)c2c1`
< 100 nM

Item: `CC#Cc1cc(Cl)c2c(=O)[nH]nc(Cc3ccc(F)c(C(=O)N4CCN(c5ccc(C#N)cn5)CC4)c3)c2c1`
< 100 nM

====

# Target System: His-GST-PARP7 (Homo sapiens (Human))
# Sequence (Q7Z3E1 whole entry): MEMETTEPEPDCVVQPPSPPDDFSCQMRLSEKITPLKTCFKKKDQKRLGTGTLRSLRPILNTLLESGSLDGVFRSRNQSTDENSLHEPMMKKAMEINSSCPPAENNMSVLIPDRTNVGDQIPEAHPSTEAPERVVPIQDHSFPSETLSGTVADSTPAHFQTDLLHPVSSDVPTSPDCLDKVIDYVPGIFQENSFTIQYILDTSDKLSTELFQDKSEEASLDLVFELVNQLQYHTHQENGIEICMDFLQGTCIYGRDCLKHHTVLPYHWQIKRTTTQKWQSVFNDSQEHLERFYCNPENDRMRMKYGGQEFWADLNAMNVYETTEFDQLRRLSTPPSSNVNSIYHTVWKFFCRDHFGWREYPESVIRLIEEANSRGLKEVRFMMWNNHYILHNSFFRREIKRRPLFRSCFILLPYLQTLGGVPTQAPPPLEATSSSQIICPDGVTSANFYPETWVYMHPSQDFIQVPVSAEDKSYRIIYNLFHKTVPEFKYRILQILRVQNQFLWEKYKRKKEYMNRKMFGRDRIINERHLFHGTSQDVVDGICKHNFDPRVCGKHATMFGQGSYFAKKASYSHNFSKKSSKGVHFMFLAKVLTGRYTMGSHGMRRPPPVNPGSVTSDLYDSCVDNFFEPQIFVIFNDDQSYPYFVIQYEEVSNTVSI
# Assay Explanation: PARP7 biochemical assay
# Test Settings: read-out: PARP7 IC50
pIC50: −log10 of the molar value.
Reported Metric: pIC50

Worked set:
compound_string=O=C(c1ccc(Cl)c(Cc2n[nH]c(=O)c3ccc(OC4CCC4)cc23)c1)N1CCN(c2ncc(C(F)(F)F)cn2)CC1 reported_metric=pIC50 reported_value="5.70 to 6.30"
compound_string=O=C(c1cc(Cc2n[nH]c(=O)c3ccc(OC4CCC4)cc23)ccc1F)N1CCn2c(CF)nnc2C1 reported_metric=pIC50 reported_value="> 7.30"

Next:
Form field: pIC50 recorded for `N#Cc1ccc(N2CCN(C(=O)c3cc(Cc4n[nH]c(=O)c5ccc(OC(F)(F)F)cc45)ccc3F)CC2)nc1` with His-GST-PARP7 (Homo sapiens (Human)) (enter value)
> 7.30
